test system: SN12C renal; assay: NCI-60 one-dose screen, 48 h; details: 10 µM unless noted
The panel holds about 83,000 compounds, 20% with a hit somewhere; the sample as a whole holds those more often. The source made the active and inactive calls. Rule for the calls: active = growth percent below 10; inactive = the rest.
Hi there, use one of these labels in your reply, thanks! Yes for active, No for inactive

Answered cases to consult:
- Chemical String: "CC(=O)OCCC/C(=C\\c1ccc2ccccc2c1)[N+](=O)[O-]"
  Assigned Category: "Yes"
- Chemical String: "COc1ccc(C(=O)c2cc(OC)c(OC)c(OC)c2)cc1/C=C/C(=O)c1ccc(F)cc1"
  Assigned Category: "No"

Hi, do you know how CCOc1cccc(/C=N/NC(=O)c2ccccc2Nc2ccnc(C(F)(F)F)c2)c1O came out in this test? No

// query: N#CC(C#N)=NO No

Please give the result for CNC(=O)CN1CCC(Oc2cc3c(Nc4cccc(Cl)c4F)ncnc3cc2OC)CC1 too. No

====

tested on: NCI-H460 lung; assay: NCI-60 one-dose screen, 48 h; conditions: 10 µM unless noted
This is part of a sample that, as a whole, favours compounds with a hit. Of some 83,000 tested, about 20% had one in any assay. Activity calls are given as the source filed them. The calls were made as follows: active = growth percent below 10; inactive = the rest.
Entry note: the call must match one of 1 (yes) (active), 0 (no) (inactive)

Example entries and their recorded answers appear below.
- Chemical String: "C=CC(=O)Nc1cc(Nc2nccc(-c3cn(C)c4ccccc34)n2)c(OC)cc1N(C)CCN(C)C"
  Assigned Category: "1 (yes)"
- Chemical String: "COCC(=O)NC/C=C/c1ccc2ncnc(Nc3ccc(Oc4ccc(C)nc4)c(C)c3)c2c1"
  Assigned Category: "0 (no)"
- Chemical String: "C=CCN1C(=O)c2cccc3c(-c4ccc5c(c4)ncn5C4CCCCC4)ccc(c23)C1=O"
  Assigned Category: "0 (no)"
- Chemical String: "Cn1cc(-c2ccc(F)c(C(F)(F)F)c2)nc1C1CCN(c2ncnc3[nH]ncc23)CC1"
  Assigned Category: "0 (no)"

Turning now to a further compound:
Per the assay record, what outcome was assigned to CCCCCC(=O)OCc1ccc(Cl)c(Cl)c1 ? 0 (no)

====

system: CCRF-CEM leukemia; experiment: NCI-60 one-dose screen, 48 h (100 = growth as untreated, 0 = no growth, -100 = all killed); conditions: 10 µM unless noted
About 83,000 compounds went through this panel and 20% of them were active in at least one assay; those are over-represented in the sample as a whole.
Task for the reader: assign each of the following molecules its reported growth.
Answers are plain numbers, in %.

Return reported growth values for all items listed beneath this line.
1. C=CC[n+]1c(/C=C/C=C2\N(C)c3ccccc3C2(C)C)sc2ccc(OC)cc21
2. Cn1nccc1Nc1nccc(-c2ccn([C@H](CO)c3ccc(Cl)c(F)c3)c(=O)c2)n1

[21.5, 99.8]

Please go through the list and note growth for each molecule.
1. Cc1[nH]n(C(N)=S)c(=O)c1N=Nc1ccc(S(=O)(=O)Nc2ccncn2)cc1
2. C/C(=C(/c1ccc(Cl)cc1)c1ccc(OCCN2CCCC2)cc1)c1ccccc1
3. Cc1ccc(-n2nc(C(C)(C)C)cc2NC(=O)NCc2cc(F)ccc2Oc2ccc3c(cnn3CCO)c2)cc1
4. CN1CC[C@@H](c2c(O)cc(O)c3c(=O)cc(-c4ccccc4Cl)oc23)[C@@H]1CO
5. Cc1c(Cn2c(C)nc3c(C(=O)O)cc(N4CCOCC4)cc32)cccc1C(F)(F)F
6. COc1cc2cc(NCc3ccc(Cl)cc3)nc(C)c2cc1OC
7. NC[C@@](O)(c1ccc(Cl)cc1)c1ccc(-c2cn[nH]c2)cc1
8. CC[C@H](CO)Nc1nc(NCc2ccccc2)c2ncn(C(C)C)c2n1

1. -34.3
2. 59.2
3. 20
4. 13.4
5. 79.6
6. 27.9
7. 15.8
8. 65.9

Hello, I would appreciate it if you could give growth for each entry below.
1. CC1(C)NC(=O)c2[nH]c3c(Cl)c(Cl)ccc3c2C1C#N (stereo unspecified)
2. O=C(Cc1ccc(/C=C/C(=O)c2ncc[nH]2)cc1)Nc1ccc(Br)cc1
3. Cc1cc(N(CCNc2ccnc3cc(Cl)ccc23)Cc2ccc3c(c2)OCO3)nc(N2CCN(C)CC2)n1
4. Brc1ccc([I+]c2ccc(Br)cc2)cc1
5. Nc1ncnc2c1ccn2-c1cccc(NC(=O)c2ccc(N3CCOCC3)c(C(F)(F)F)c2)c1
6. CCOc1cc2ncc(C#N)c(Nc3ccc(OCc4ccccn4)c(Cl)c3)c2cc1NC(=O)/C=C/CN(C)C

[70.3, 6.63, -11.8, 20.3, 20.5, 3.88]

Measured values drawn from PubChem BioAssay (NCI) for this set.
